Source: paper PMC9537541

Biological target: hCA XII (Homo sapiens, UniProt O43570)
Construct: made in house
Sequence (O43570 25-354): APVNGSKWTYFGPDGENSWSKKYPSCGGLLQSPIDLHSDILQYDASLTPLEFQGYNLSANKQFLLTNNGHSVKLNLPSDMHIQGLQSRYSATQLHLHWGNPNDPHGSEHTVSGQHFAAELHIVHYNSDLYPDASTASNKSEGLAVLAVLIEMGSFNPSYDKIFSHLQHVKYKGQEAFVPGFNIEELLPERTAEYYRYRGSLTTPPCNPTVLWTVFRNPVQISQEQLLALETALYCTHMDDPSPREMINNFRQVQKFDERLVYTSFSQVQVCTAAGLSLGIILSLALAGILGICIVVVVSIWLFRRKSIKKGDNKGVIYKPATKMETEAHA
Test: stopped-flow CO2 hydrase assay, hCA XII
Format: biochemical
Settings: hCA XII over off-target hCA II
measurement label: Selectivity index (SI) II/XII

These recorded examples may help you get a feel for the data.
* NC1=NC2(CCCC2)NC(Nc2ccc(S(N)(=O)=O)cc2)=N1 [Compound 8a] | 0.5
* COc1ccc(/C=C(\C#N)c2nc(N)nc(Nc3ccc(S(N)(=O)=O)cc3)n2)cc1 [Compound 12c] | 0.2

a. Cc1ccc(/C=C(\C#N)c2nc(N)nc(Nc3ccc(S(N)(=O)=O)cc3)n2)cc1 [Compound 12g]
b. CC1(C)N=C(N)N=C(N)N1c1ccc(S(N)(=O)=O)cc1 [Compound 5a]
Query: Could you tell me which of these two has the smaller Selectivity index (SI) II/XII figure? First: a Second: b Let me know the label of the one you choose.
Result: b
(b: 0.2, a: 0.3)

* * *

Known melting point of a selection of molecules
Counter-ions that a name gives are not always drawn.

* NC1=NC2(CCCCC2)N(c2ccc(S(N)(=O)=O)cc2)C(N)=N1 (as salt: HCl) [Compound 6b] | 257 to 259 °C
* CC1CCC2(CC1)N=C(N)N=C(N)N2c1ccc(S(=O)(=O)Nc2ccccn2)cc1 (stereo not drawn) (as salt: HCl) [Compound 6f.] | 217 to 219 °C
* NC1=NC2(CCCCC2)N(c2ccc(S(=O)(=O)Nc3ccccn3)cc2)C(N)=N1 (as salt: HCl) [Compound 6e] | 246 to 248 °C

Query: Provide melting point value for the following molecule: CC1(C)N=C(N)N=C(Nc2ccc(S(N)(=O)=O)cc2)N1 [Compound 7a]
Result: 268 to 270 °C

Query: Provide melting point value for the following molecule: NC1=NC2(CCCC2)N(c2ccc(S(N)(=O)=O)cc2)C(N)=N1 (as salt: HCl) [Compound 6a]
Result: 240 to 241 °C

Query: Provide melting point value for the following molecule: N#C/C(=C\c1ccc2c(c1)OCO2)c1nc(N)nc(Nc2ccc(S(N)(=O)=O)cc2)n1 [Compound 12e]
Result: 269 to 271 °C

Query: Provide melting point value for the following molecule: NC1=NC2(CCCCCC2)N(c2ccc(S(=O)(=O)Nc3ccccn3)cc2)C(N)=N1 (as salt: HCl) [Compound 6g]
Result: 239 to 241 °C

Query: Provide melting point value for the following molecule: N#C/C(=C\c1cccc(Cl)c1)c1nc(N)nc(Nc2ccc(S(N)(=O)=O)cc2)n1 [Compound 12h]
Result: 222 to 224 °C

Query: Provide melting point value for the following molecule: N#C/C(=C\c1ccccc1)c1nc(N)nc(Nc2ccc(S(N)(=O)=O)cc2)n1 [Compound 12a]
Result: 174 to 176 °C

Query: Provide melting point value for the following molecule: CC1(C)N=C(N)N=C(N)N1c1ccc(S(=O)(=O)Nc2nccs2)cc1 (as salt: HCl) [Compound 5c]
Result: 216 to 218 °C

Query: Provide melting point value for the following molecule: CC1CCC2(CC1)N=C(N)N=C(Nc1ccc(S(N)(=O)=O)cc1)N2 (stereo not drawn) [Compound 8c]
Result: 264 to 266 °C

Query: Provide melting point value for the following molecule: Cc1ccc(/C=C(\C#N)c2nc(N)nc(Nc3ccc(S(N)(=O)=O)cc3)n2)cc1 [Compound 12g]
Result: 204 to 206 °C
